Values from PubChem BioAssay (NCI)

test system: SF-268 CNS; assay: NCI tumour cell line growth inhibition, 48 h
quantity: TGI

Q: What value of measured TGI is listed for CCOC(=O)C(NC(=O)c1ccco1)(Nc1nc2ccc(OCC)cc2s1)C(F)(F)F (stereo not drawn) ?
Result: > 100 µM

Q: Repeat for the following compound: "NC(=O)c1c(NC(=O)c2ccccn2)sc2c1CCC(=O)C2"
Result: > 100 µM

Q: Repeat for the following compound: "COc1ccc(/C=C/C(=O)c2ccc(O)c(CN3CCN(c4cc5c(cc4F)c(=O)c(C(=O)O)cn5C4CC4)CC3)c2)cc1"
Result: > 100 µM

###

Reported TGI by item:
tested on: UO-31 renal; assay: NCI tumour cell line growth inhibition, 48 h

Worked set:
{"molecule": "CC(C)CC(NC(=O)OC(C)(C)C)C(=O)Nc1ccc(Nc2nc(F)nc(-c3c4ccccc4c4n3CCS4)n2)cc1 (stereo unspecified)", "TGI": "34.8 µM"}
{"molecule": "Nc1ccccc1S(=O)(=O)c1ccccc1", "TGI": "> 100 µM"}
{"molecule": "CN1CCN(c2ncc3c(n2)sc2c(=O)n(-c4ccccc4)cnc23)CC1", "TGI": "> 100 µM"}
{"molecule": "COc1ccc(CC(=O)N2CCC3(C)CC(=O)CC=C23)cc1OC (stereo unspecified)", "TGI": "> 100 µM"}
{"molecule": "O=C1Nc2nc3ccccc3n2N=C2CCCC12 (stereo unspecified)", "TGI": "> 100 µM"}

Q: What value of measured TGI is listed for "CC(=O)Oc1ccc(-c2cc3ccccc3oc2=O)cc1" ?
Result: > 100 µM

Q: Repeat for the following molecule: CC1OC(n2c3ccccc3c3c4c(c5c6ccccc6[nH]c5c32)C(=O)N(CCN[C@@H]2CCC[C@H]2N)C4=O)CC(O)C1O (stereo partly specified)
Result: 15 µM

Q: Repeat for the following molecule: CC1OC(OC2C[C@](O)(C(=O)CF)Cc3c(O)c4c(c(O)c32)C(=O)c2ccccc2C4=O)CC(N)C1O (stereo partly specified)
Result: 1.02 µM

Q: Repeat for the following molecule: "O=C(O/C(=C(/N=Nc1ccccc1)c1ccccc1)c1ccccc1)c1ccccc1"
Result: > 100 µM

Q: Repeat for the following molecule: "O=[N+]([O-])c1ccc2c(c1)Cc1cc(N=Cc3ccc4c(c3)OCO4)ccc1-2"
Result: > 100 µM

Q: Repeat for the following molecule: C=CCOC(=O)NC1C(OC(C)[C@@H](NC(=O)OCc2ccccc2)C(=O)OC(C)(C)C)OC(COC(C)=O)C(OC(C)=O)C1OC(C)=O (stereo partly specified)
Result: 47.3 µM

Q: Repeat for the following molecule: C=CCC(N(C)C(=O)[C@H](Cc1ccccc1)NC(=O)OCc1ccccc1)P(=O)(Oc1ccccc1)Oc1ccccc1 (stereo partly specified)
Result: > 100 µM

Q: Repeat for the following molecule: "NC(=O)c1ccccc1Nc1ccc2nnc(-c3ccncc3)n2n1"
Result: 17.6 µM

###

Reported TGI by item:
system: NCI-H460 lung; assay: NCI tumour cell line growth inhibition, 48 h

Worked set:
{"molecule": "Nc1nc(N)c2nc(CNc3ccc(C(=O)NC(CC(=O)O)C(=O)O)cc3)cnc2n1 (centres undefined)", "TGI": "> 100 µM"}
{"molecule": "Cc1ccccc1C(=O)N/N=C/c1ccc(Sc2nccn2C)c([N+](=O)[O-])c1", "TGI": "> 100 µM"}
{"molecule": "CN(C)C(=S)/N=c1\\ssc(=S)n1Cc1ccccc1", "TGI": "22.6 µM"}
{"molecule": "Cn1c2ccc3cc2c(=S)c2cc(ccc21)OCCOCCOCCOCCOCCO3", "TGI": "> 10 µM"}
{"molecule": "O=C1NCc2ccccc2S(=O)(=O)n2cccc21", "TGI": "> 100 µM"}
{"molecule": "Cc1oc2c(C)c3oc(=O)cc(C)c3cc2c1CN1C(=O)C2OCCOCCOCCOCCOCCO[C@H]2C1=O (some centres undefined)", "TGI": "> 100 µM"}

Q: What value of measured TGI is listed for COc1ccc(C2CC(C)(O)Oc3cc4c(cc32)OCO4)cc1 (centres undefined) ?
Result: > 100 µM

Q: Repeat for the following molecule: "O=C(/C=C/c1ccccc1)NNC(=O)c1c(Cl)c(Cl)c(Cl)c(Cl)c1-c1nc2ccccc2[nH]1"
Result: 61 µM

Q: Repeat for the following molecule: "CCOC(=O)c1c2c(n(Cc3ccc(Cl)cc3Cl)c1C)-c1nc[nH]c1C(=O)C2=O"
Result: 15.9 µM

###

test system: BT-549 breast; test: NCI tumour cell line growth inhibition, 48 h
quantity: TGI

{"smiles_text": "COC(=O)CNS(=O)(=O)c1ccc(-c2c3nc(c(-c4ccc(S(=O)(=O)NCC(=O)OC)cc4)c4ccc([nH]4)c(-c4ccc(S(=O)(=O)NCC(=O)OC)cc4)c4nc(c(-c5ccc(S(=O)(=O)NCC(=O)OC)cc5)c5ccc2[nH]5)C=C4)C=C3)cc1", "observed": "> 100 µM"}
{"smiles_text": "Cc1cc(Cl)ccc1Nc1nc(C(F)(F)F)ccc1C(=O)N/N=C/c1ccc(Cl)cc1", "observed": "4.71 µM"}

Now, please, on to the next molecule.
Q: What value of measured TGI is listed for "CCOC(=O)c1nc2ccccc2nc1NCc1cc(OC)c(OC)c(OC)c1" ?
Result: > 100 µM

###

Reported TGI by item:
system: COLO 205 colon; experiment: NCI tumour cell line growth inhibition, 48 h

Worked set:
{"molecule": "O=C(CCc1ccc(O)c(O)c1)NCCc1cc(O)cc(O)c1", "TGI": "> 100 µM"}
{"molecule": "O=C(NC(=O)c1cn(CCN(CCO)C(=O)NCCCCCCNC(=O)N(CCO)CCn2cc(C(=O)NC(=O)OCc3ccccc3)c(=O)[nH]c2=O)c(=O)[nH]c1=O)OCc1ccccc1", "TGI": "> 100 µM"}
{"molecule": "C=CCC(N(C)C(=O)[C@H](Cc1ccccc1)NC(=O)OCc1ccccc1)P(=O)(Oc1ccccc1)Oc1ccccc1 (stereo not given in full)", "TGI": "> 100 µM"}
{"molecule": "CC(=O)C(=Cc1ccc(C=C(C(C)=O)C(C)=O)cc1)C(C)=O", "TGI": "3.33 µM"}
{"molecule": "Nc1nc(SCCc2ccccc2)nc2nc3c(c(-c4ccccc4)c12)CCCC3", "TGI": "> 100 µM"}

Q: For COLO 205 colon, provide TGI of "O=S(=O)(O)C(=Nc1cccc(Cc2ccccc2)c1)Nc1cccc(Cc2ccccc2)c1" please.
Result: 34.3 µM

Q: Repeat for the following molecule: "Cc1ccccc1C(=O)N/N=C/c1ccc(Sc2nccn2C)c([N+](=O)[O-])c1"
Result: > 100 µM

###

test system: SN12C renal; assay: NCI tumour cell line growth inhibition, 48 h
Reported TGI by item:

{"molecule": "O=C1CSC(c2ccc([N+](=O)[O-])cc2)N1c1ccc(-n2c(-c3ccccc3)nc3ccccc3c2=O)cc1 (configuration not stated)", "quantity": "TGI", "observed": "> 100 µM"}
{"molecule": "C=CCNC(=O)N(CCCC(NC(C)=O)C(=O)NCc1ccccc1)Cc1ccccc1 (configuration not stated)", "quantity": "TGI", "observed": "> 100 µM"}
{"molecule": "CN1CCN(c2ncc3c(n2)sc2c(=O)n(-c4ccccc4)cnc23)CC1", "quantity": "TGI", "observed": "> 100 µM"}
{"molecule": "O=[N+]([O-])c1ccc2c(c1)Cc1cc(N=Cc3ccc4c(c3)OCO4)ccc1-2", "quantity": "TGI", "observed": "> 100 µM"}
{"molecule": "COc1ccc(C(=O)c2sc(Nc3ccc(Cl)cc3)nc2N)cc1", "quantity": "TGI", "observed": "> 62.8 µM"}

Q: What value of measured TGI is listed for "COc1ccc(-c2nc(/C=N/Nc3cc(C)nc4ccc(Cl)cc34)c(C)o2)cc1" ?
Result: 3.42 µM

Q: Repeat for the following molecule: "CN(C)CCNC(=O)c1cc([N+](=O)[O-])cc2c1Oc1ccccc1O2"
Result: > 100 µM

###

test system: CAKI-1 renal; experiment: NCI tumour cell line growth inhibition, 48 h
quantity: TGI

{"compound": "CN1CCN(CCOc2ccc(-c3cnc4c(-c5ccc(C(F)(F)F)cc5)cnn4c3)cc2)CC1", "target": "CAKI-1 renal", "TGI": "2.72 µM"}

Q: For CAKI-1 renal, provide TGI of "COc1cc2c(cc1OCCCCN1C(=O)c3cccc4cccc(c34)C1=O)N=C[C@@H]1CCCN1C2=O" please.
Result: 10.1 µM

Q: Repeat for the following compound: "COc1cc(OC)nc(-n2c(N)c(C#N)c3ccc([N+](=O)[O-])cc3c2=O)n1"
Result: > 100 µM

Q: Repeat for the following compound: "COc1ccc(CNC(=O)NCn2cc(-c3ccccc3)nn2)cc1"
Result: > 100 µM

Q: Repeat for the following compound: "O=C(/C=C/c1ccccc1)NNC(=O)c1c(Cl)c(Cl)c(Cl)c(Cl)c1-c1nc2ccccc2[nH]1"
Result: > 100 µM

Q: Repeat for the following compound: "COc1cc(Nc2c(C#N)cnc3cc(OCCCN4CCN(C)CC4)c(OC)cc23)c(Cl)cc1Cl"
Result: 5.13 µM
